Origin of values: patent US12691070B2

tested on: Hep G2 cells; assay: In vitro toxicity (CellTiter-Glo cell viability), Hep G2; assay type: cell-based; conditions: cirRNA (SEQ ID NO: 1) LNPs; Hep G2 cells;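 note: percent of untreated cells luminescence signal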
Please use 1 whenever In vitro Viability HepG2 is not below 90%, and -1 whenever it is.

>  <molecule>
CCCCCCCCC(CCCCCC)C(=O)OCCCCCCCCN(CCCCCCCCOC(=O)C(CCCCCC)CCCCCCCC)CCCOC(=O)NCCN1CCCC1 (stereo not drawn)

>  <assay-system>
Hep G2 cells

>  <group>
-1

$$$$

Query string: Hi team, for "CCCCCCCCCCCOC(=O)CCCCCN(CCCCCCCC(=O)OC(CCCCCCCC)CCCCCCCC)CCOC(=O)NCCCN(C)C" , is the recorded In vitro Viability HepG2 at or above 90%?
Result string: -1

Query string: Hi team, for "CCCCC/C=C\C/C=C\CCCCCCCCN(CCCCCCCC(=O)OC(CCCCCCCC)CCCCCCCC)CCCOC(=O)NCCN1CCN(C)CC1" , is the recorded In vitro Viability HepG2 at or above 90%?
Result string: 1

Query string: Hi team, for "CCCCC/C=C\C/C=C\CCCCCCCCN(CCCCCCCC(=O)OC(CCCCCCCC)CCCCCCCC)CCCOC(=O)NCCCn1ccnc1" , is the recorded In vitro Viability HepG2 at or above 90%?
Result string: 1

Query string: Hi team, for CCCCCCCCC(CCCCCC)C(=O)OCCCCCCCCN(CCCCCCCCOC(=O)C(CCCCCC)CCCCCCCC)CCCOC(=O)NCCCN(CC)CC (stereo not drawn) , is the recorded In vitro Viability HepG2 at or above 90%?
Result string: -1

---

test: LNP size and polydispersity index (PDI) by dynamic light scattering; assay type: physicochemical; conditions: LNP with mRNA (SEQ ID NO: 2)
measurement-type: PDI
Write no unit; give the number alone.

Examples with their reported PDI follow.
>  <compound>
CCCCCCCCCCC(CCCCCCCC)COC(=O)CCCCCN(CCCCCC(=O)OCC(CCCCCCCC)CCCCCCCCCC)CCOC(=O)NCCN1CCCC1 (stereo not drawn)

>  <observed-result>
0.101

$$$$
>  <compound>
CCCCCCCCCC(=O)OCCCCCCCN(CCCCCCCCOC(=O)C(CCCCCC)CCCCCCCC)CCOC(=O)NCCN(C)C (stereo not drawn)

>  <observed-result>
0.07142

$$$$
>  <compound>
CCCCC/C=C\C/C=C\CCCCCCCCN(CCCCCC(=O)OCC(CCCCCCCC)CCCCCCCCCC)CCOC(=O)NCCN(C)C (stereo not drawn)

>  <observed-result>
0.1903

$$$$

Short answer for CCCCC/C=C\CCOC(=O)CCCCCCCN(CCCCCCCC(=O)OCC/C=C\CCCCC)CCOC(=O)CCCN(C)C [Lipid C, reference compound] : PDI was 0.08023

Short answer for CCCCCCCCC(CCCCCC)C(=O)OCCCCCCCCN(CCCCCCCCOC(=O)C(CCCCCC)CCCCCCCC)CCCOC(=O)NCCN(C)C (stereo not drawn) : PDI was 0.06656

Short answer for CCCCCCCCCCC(CCCCCCCC)COC(=O)CCCCCN(CCCCCC(=O)OCC(CCCCCCCC)CCCCCCCCCC)CCOC(=O)NCCN1CCCCC1 (stereo not drawn) : PDI was 0.07881
